Value source: patent US9266834B2

>  <Compound>
COCc1cccc(-c2ccn(CCC(C)C)c(=O)c2C#N)c1

>  <melting point / °C>
67

$$$$
>  <Compound>
N#Cc1c(-c2ccc(Oc3ccccc3)cc2)ccn(Cc2ccc(OC(F)(F)F)cc2)c1=O

>  <melting point / °C>
155

$$$$
>  <Compound>
CC(C)CCn1ccc(-c2ccc(Oc3cccnc3)cc2)c(C#N)c1=O

>  <melting point / °C>
132

$$$$
>  <Compound>
Cc1nc(COc2ccc(-c3ccn(CCC(C)C)c(=O)c3C#N)cc2)cs1

>  <melting point / °C>
144

$$$$
>  <Compound>
CC(C)CCn1ccc(-c2ccc(Oc3ccc(C#N)cc3)cc2)c(C#N)c1=O

>  <melting point / °C>
193

$$$$
>  <Compound>
CC(C)CCn1ccc(-c2ccc(CN(C)C)cc2)c(C#N)c1=O

>  <melting point / °C>
130

$$$$
>  <Compound>
CCCCn1ccc(N2CCC(Oc3cccnc3)CC2)c(C#N)c1=O

>  <melting point / °C>
188

$$$$
>  <Compound>
CC(C)CCn1ccc(OCCOCc2ccccc2)c(C#N)c1=O

>  <melting point / °C>
83

$$$$
>  <Compound>
CCCCn1ccc(-c2ccc(N3CCCCC3)cc2)c(C#N)c1=O

>  <melting point / °C>
122

$$$$
>  <Compound>
CC(C)CCn1ccc(-c2ccc(OCc3cccc(Cl)c3)cc2)c(C#N)c1=O

>  <melting point / °C>
120

$$$$
>  <Compound>
N#Cc1c(-c2ccc(CN3CCCCC3)cc2)ccn(Cc2ccc(OC(F)(F)F)cc2)c1=O

>  <melting point / °C>
167

$$$$
>  <Compound>
CC(C)Cn1ccc(N2CCN(Cc3ccc(OC(F)(F)F)c(Cl)c3)CC2)c(C#N)c1=O

>  <melting point / °C>
112

$$$$
>  <Compound>
CNc1ccc(-c2ccn(CCC(C)C)c(=O)c2C#N)cc1

>  <melting point / °C>
189

$$$$
>  <Compound>
CN(c1ccn(Cc2ccc(OC(F)(F)F)cc2)c(=O)c1C#N)C1CCN(Cc2ccccc2)CC1

>  <melting point / °C>
211

$$$$
>  <Compound>
CC1CCC(Cn2ccc(-c3ccc(OC(F)(F)F)cc3)c(C#N)c2=O)CC1 (centres unmarked)

>  <melting point / °C>
143

$$$$
>  <Compound>
COc1ccc(-c2ccn(CCC(C)C)c(=O)c2C#N)cc1OC

>  <melting point / °C>
52

$$$$
>  <Compound>
N#Cc1c(-c2ccccc2)ccn(Cc2cccc(OC(F)(F)F)c2)c1=O

>  <melting point / °C>
153

$$$$
>  <Compound>
CC(C)CCn1ccc(-c2ccc(CN(C)Cc3ccccn3)cc2)c(C#N)c1=O

>  <melting point / °C>
294

$$$$
>  <Compound>
CC(C)CCn1ccc(OCc2ccc(CN3CCOCC3)cc2)c(C#N)c1=O

>  <melting point / °C>
154

$$$$
>  <Compound>
CC(C)CCn1ccc(C(=O)N2CCN(c3ncccn3)CC2)c(C#N)c1=O

>  <melting point / °C>
223

$$$$
>  <Compound>
C[C@@H]1CN(Cc2ccc(-c3ccn(Cc4ccc(OC(F)(F)F)cc4)c(=O)c3C#N)cc2)C[C@H](C)O1

>  <melting point / °C>
136

$$$$
>  <Compound>
CC(C)CCn1ccc(-c2cccc(Cl)c2)c(C#N)c1=O

>  <melting point / °C>
123

$$$$
>  <Compound>
CC(C)CCn1ccc(N2CCC(N3CCc4ccccc4C3)CC2)c(C#N)c1=O

>  <melting point / °C>
253

$$$$
>  <Compound>
CC(C)CCn1ccc(-c2ccc(OCc3ccccc3)c(F)c2)c(C#N)c1=O

>  <melting point / °C>
173

$$$$
>  <Compound>
CC(C)CCn1ccc(-c2ccc(NCc3ccc(F)cc3)cc2)c(C#N)c1=O

>  <melting point / °C>
162

$$$$
>  <Compound>
CC(C)CCn1ccc(-c2ccc(N3CCOc4ccccc43)cc2)c(C#N)c1=O

>  <melting point / °C>
148

$$$$
>  <Compound>
CC(=O)c1ccc(-c2ccn(CCC(C)C)c(=O)c2C#N)cc1

>  <melting point / °C>
130

$$$$
>  <Compound>
CCCn1ccc(-c2cccs2)c(C#N)c1=O

>  <melting point / °C>
135

$$$$
